The origin of these recorded values is patent US12012419B2.

- Measured On: human M1 receptor (hCHRM1) (Homo sapiens, UniProt P11229)
- Sequence (P11229 1-460): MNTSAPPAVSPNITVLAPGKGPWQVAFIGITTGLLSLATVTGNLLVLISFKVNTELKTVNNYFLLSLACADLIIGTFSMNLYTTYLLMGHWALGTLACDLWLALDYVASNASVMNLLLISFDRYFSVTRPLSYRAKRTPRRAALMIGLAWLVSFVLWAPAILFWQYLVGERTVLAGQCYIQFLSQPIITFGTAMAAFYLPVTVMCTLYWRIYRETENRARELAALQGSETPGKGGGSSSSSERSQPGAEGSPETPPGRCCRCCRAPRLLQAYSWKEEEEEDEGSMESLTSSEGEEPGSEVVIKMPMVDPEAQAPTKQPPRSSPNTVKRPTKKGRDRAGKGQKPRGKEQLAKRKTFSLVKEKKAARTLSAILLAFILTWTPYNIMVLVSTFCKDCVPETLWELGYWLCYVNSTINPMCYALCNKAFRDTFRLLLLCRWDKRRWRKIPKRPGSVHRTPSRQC
- Test Description: Measurement of M1 receptor positive allosteric modulator (M1PAM) activity
- Conditions: CHO-K1 cells stably expressing hCHRM1, in the presence of acetylcholine at EC20 concentration, IP1 readout
- Procedure: Measurement of M1 Receptor Positive Allosteric Modulator (M1PAM) Activity The activity of a test compound in the presence of acetylcholine at an EC20 concentration affording about 20% action of the maximum activity was measured as PAM activity. […] 4 μL of a solution (CisBio) containing IP1-d2 and Anti-IP1-cryptate Tb conjugate was added, the mixture was incubated at room temperature for 1 hr, and the time-resolved fluorescence signal was measured on an Envision plate reader (PerkinElmer). […]
Assay Readout: pEC50
In simple prose, pEC50 is minus the logarithm base ten of a concentration in moles per litre.

Entry COCCNC(=O)c1ccc(Cc2cc3c(c4c2OCC4)OCN([C@H]2CCOC[C@@H]2O)C3=O)cc1F [Example 1] has what pEC50?
9.51

====

- Test Description: Rat PK test
- Assay type: in vivo
- Conditions: plasma, intravenous 0.1 mg/kg, male SD rats, 10 compounds cassette administration
Assay Readout: MRT (min)
Note: unit min is implicit; provide only the numeric part.

What MRT value was documented for this compound, COCCNC(=O)c1ccc(Cc2cc3c(c4c2OCC4)OCN([C@H]2CCOC[C@@H]2O)C3=O)cc1F ?
48

====

- Test Description: Rat PK test
- Format: in vivo
- Conditions: plasma, intravenous 0.1 mg/kg, male SD rats, 10 compounds cassette administration, read-out: CL total (converted)
Assay Readout: clearance

Please report the recorded clearance for COCCNC(=O)c1ccc(Cc2cc3c(c4c2OCC4)OCN([C@H]2CCOC[C@@H]2O)C3=O)cc1F .
12.6 mL/min/kg

====

- Test Description: Rat PK test
- Format: in vivo
- Conditions: plasma, oral 1 mg/kg, male SD rats, 5 compounds cassette administration
Assay Readout: Tmax

Given the compound COCCNC(=O)c1ccc(Cc2cc3c(c4c2OCC4)OCN([C@H]2CCOC[C@@H]2O)C3=O)cc1F , what is its reported Tmax?
1 h
